Listed molecules paired with reported IC50
target-of-assay: ThsSR (ThsS/R; Shal_3128/9) (Shewanella halifaxensis, UniProt B0TQ83)
Construct: E. coli codon-optimised ThsS (pKD182, IPTG-inducible) and ThsR (pKD184, aTc-inducible) in E. coli BW28357; PphsA342-sfGFP reporter; membrane histidine kinase with PhnD-like periplasmic sensor domain; with Thiosulfate response regulator ThsR
Sequence (B0TQ83 1-594): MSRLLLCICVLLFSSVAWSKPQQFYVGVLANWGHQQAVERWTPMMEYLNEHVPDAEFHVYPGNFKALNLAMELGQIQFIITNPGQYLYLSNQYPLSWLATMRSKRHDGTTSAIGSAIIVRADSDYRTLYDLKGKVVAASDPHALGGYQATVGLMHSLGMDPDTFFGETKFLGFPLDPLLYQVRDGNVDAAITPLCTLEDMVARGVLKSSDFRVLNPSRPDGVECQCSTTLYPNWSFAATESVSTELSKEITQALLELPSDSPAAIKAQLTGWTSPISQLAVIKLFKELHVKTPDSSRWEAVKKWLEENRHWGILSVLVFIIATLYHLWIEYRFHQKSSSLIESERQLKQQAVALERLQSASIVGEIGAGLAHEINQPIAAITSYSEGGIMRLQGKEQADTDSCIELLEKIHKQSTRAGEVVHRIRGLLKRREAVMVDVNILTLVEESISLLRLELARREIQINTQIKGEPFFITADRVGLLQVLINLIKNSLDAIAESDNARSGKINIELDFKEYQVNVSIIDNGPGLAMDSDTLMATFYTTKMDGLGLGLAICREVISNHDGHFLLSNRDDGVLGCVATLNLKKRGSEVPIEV
procedure-details: sfGFP reporter, flow cytometry, repression transfer function
study-conditions: read-out: half-maximal inhibition
Respond with the bare value in µM.

Q: Quick one: IC50 for O=S(=O)(O)SSS(=O)(=O)O [tetrathionate] ?
Result: 550

Would you kindly look at the next entry?
Q: Quick one: IC50 for `O=S(O)O` ?
Result: 390

###

target-of-assay: ThsSR (ThsS/R; Shal_3128/9) (Shewanella halifaxensis, UniProt B0TQ83)
Construct: E. coli codon-optimised ThsS (pKD182, IPTG-inducible) and ThsR (pKD184, aTc-inducible) in E. coli BW28357; PphsA342-sfGFP reporter; membrane histidine kinase with PhnD-like periplasmic sensor domain; with Thiosulfate response regulator ThsR
procedure-details: sfGFP reporter, flow cytometry, Hill fit
study-conditions: read-out: k 1/2
measured-property: pEC50
Scale: negative log10 of molar concentration, which is what pEC50 denotes.

Q: Write down the reported pEC50 of O=S(O)(O)=S [thiosulfate] , test system: ThsSR (ThsS/R; Shal_3128/9) (Shewanella halifaxensis, UniProt B0TQ83).
Result: 3.55
